Answer each item with its documented PSV neutralization IC50.
- TARGET SYSTEM: SARS-CoV-1 spike on pseudovirus (SARS-CoV-1, UniProt P59594 14-1255)
- TEST SUMMARY: cell-based or functional assay

State its PSV neutralization IC50 for this binder: L12.cP08D10 (antibody, V domains shown, human IgG1) VH: EVQLVQSGAEVKKPGASVKVSCKASGYIFSGYYMHWVRQAPGQGLEWMGWISPDSGGTNYAQNFQGRVTMTRDTSISTGYMELSRLRSDDTAMYYCARGPRYSGTYFDYWGQGVLVTVSS VL: QSVLTQPASVSGSPGQSITISCTGTSSDVGGYNYVSWYQQHPGKVPKLMIYDVSNRPSGVSNRFSGSKSGNTASLTISGLQAEDEADYYCSSYTSSSAQVFGGGTKLTVL
> 50 µg/mL

Return the recorded PSV neutralization IC50 value; entry: L12.bP11A06 (antibody, V domains shown) VH: EVQLVESGGGLIQPGGSLRLSCAASGLTVSSNYMSWVRQAPGKGLEWVSVIYSGGSTFYADSVKGRFTISRDNSKNTLYLQMNSLRAEDTAVYYCARDLDVYGLDVWGQGTTVTVSS VL: DIVMTQSPSFLSASVGDRVTITCRASQGISSYLAWYQQKPGKAPKLLIYAASTLQSGVPSRFSGSGSGTEFTLTISSLQPEDFATYYCQQLNSYPPKFTFGPGTKVEIK
> 50 µg/mL

Please report the measured PSV neutralization IC50 for L12.bP11C10 (antibody, V domains shown, human IgG1) VH: QVQLVQSGAEVKKPGASVKVSCKASGYIFSGYYMHWVRQAPGQGLEWMGWISPDSGGTNYAQKFQGRVTMTRDTSITTGYMELSGLRSDDTAVYYCARGPRYSGTYFDYWGQGTLVTISS VL: QSALTQPTSVSGSPGQSITISCTGTSSDVGGYNYVSWYQQHPGKAPKLIIYDVSNRPSGVSNRFSGSKSGNTASLTISGLQAEDEADYYCSSYTVSSTQVFGGGTKLTVL
> 50 µg/mL
